Sourced from patent US11584714B2

molecular target: Thrombin (Homo sapiens (Human), UniProt P00734); test: Thrombin inhibition (Ki); format: biochemical
observable: Ki

# Ki of "O=c1[nH]c2ccccc2c(=O)o1" = 25 to 100 µM

###

Provide the recorded Ki for the entries that follow.
target: Thrombin (Homo sapiens (Human)); test: Thrombin inhibition (Ki); type: biochemical; details: read-out: Thrombin Ki

Return reported Ki values for all items listed beneath this line.
1. Cc1ccc(/C=C2\N=C(c3ccccc3F)OC2=O)o1 [compound 2]
2. Cc1sc2nc(-c3ccccc3F)oc(=O)c2c1C [compound 42]
3. O=C1NC(=S)NC(=O)C1=C/C=C/c1ccco1 [compound 29]
4. O=C1OC(/C=C/c2ccccc2)=NC/1=C\c1ccco1 [compound 6]

Found:
25 to 100 µM
25 to 100 µM
25 to 100 µM
25 to 100 µM

Return reported Ki values for all items listed beneath this line.
1. O=c1oc(-c2cccs2)nc2ccccc12 [compound 10]
2. O=c1oc(-c2ccco2)nc2scc(-c3cccs3)c12 [compound 19]
3. COc1ccccc1C1=N/C(=C\c2cc(OC)c(OC)c(OC)c2)C(=O)O1 [compound 4]
4. O=C(Nc1nc[nH]n1)c1cccc(I)c1 [compound 36]

Found:
1. 25 to 100 µM
2. 25 to 100 µM
3. 25 to 100 µM
4. 25 to 100 µM

###

molecular target: MASP-2 (CCP1-CCP2-SP) (Homo sapiens (Human)); assay: biochemical; assay type: biochemical; conditions: MASP-2 inhibition versus thrombin
Sequence (O00187 445-686): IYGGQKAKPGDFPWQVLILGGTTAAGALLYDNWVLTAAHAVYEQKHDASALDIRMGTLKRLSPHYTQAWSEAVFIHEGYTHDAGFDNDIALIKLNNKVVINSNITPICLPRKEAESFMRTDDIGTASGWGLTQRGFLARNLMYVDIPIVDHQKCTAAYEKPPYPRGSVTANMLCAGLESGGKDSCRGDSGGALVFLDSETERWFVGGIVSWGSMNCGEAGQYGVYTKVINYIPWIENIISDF
observable: MASP-2 vs. thrombin selectivity

Would you please look over these solved cases?
# MASP-2 vs. thrombin selectivity of "C[C@H](NC(=O)[C@@H](CCc1ccccc1)NC1CCCC1)C(=O)NCc1ccc(C(=N)N)cc1" = −− (less than 1.0-fold)

# MASP-2 vs. thrombin selectivity of "C[C@H](NC(=O)[C@@H](CCc1ccccc1)NC1CCC1)C(=O)NCc1ccc(C(=N)N)cc1" = * (1.0 to 5.0-fold)

# MASP-2 vs. thrombin selectivity of "C[C@H](NC(=O)[C@H](N)CCc1cccc(F)c1)C(=O)NCc1ccc(C(=N)N)cc1" = ** (5.0 to 25-fold)

# MASP-2 vs. thrombin selectivity of "C[C@@H](C(=O)NCc1ccc(C(=N)N)cc1)N(C)C(=O)[C@H](NCC(=O)O)C1CCCCC1" = −− (less than 1.0-fold)

Return reported MASP-2 vs. thrombin selectivity values for all items listed beneath this line.
1. Cc1cc(C)cc(CC[C@@H](N)C(=O)N[C@@H](C)C(=O)NCc2ccc(C(=N)N)cc2)c1
2. C[C@H](NC(=O)[C@@H](CCc1ccccc1)NCC(=O)O)C(=O)NCc1ccc(C(=N)N)cc1
3. N=C(N)c1ccc(CNC(=O)[C@@H]2CCN2C(=O)[C@H](O)C2CCCCC2)cc1
4. C[C@H](NC(=O)[C@@H](CCc1ccccc1)NCc1ccc(N2CCOCC2)cc1)C(=O)NCc1ccc(C(=N)N)cc1
5. C[C@H](NC(=O)[C@H](N)CCCc1ccccc1)C(=O)NCc1ccc(C(=N)N)cc1
6. C[C@H](NC(=O)[C@H](N)Cc1cccc2ccccc12)C(=O)NCc1ccc(C(=N)N)cc1
7. C[C@H](NC(=O)[C@H](N)CCc1cccc(C(F)(F)F)c1)C(=O)NCc1ccc(C(=N)N)cc1

Found:
** (5.0 to 25-fold)
* (1.0 to 5.0-fold)
−− (less than 1.0-fold)
** (5.0 to 25-fold)
** (5.0 to 25-fold)
−− (less than 1.0-fold)
** (5.0 to 25-fold)

Return reported MASP-2 vs. thrombin selectivity values for all items listed beneath this line.
1. N=C(N)c1ccc(CNC(=O)[C@@H]2CCN2C(=O)[C@H](N)c2ccccc2)cc1
2. COc1cc(CC[C@@H](N)C(=O)N[C@@H](C)C(=O)NCc2ccc(C(=N)N)cc2)cc(OC)c1
3. C[C@H](NC(=O)[C@@H](CCc1ccccc1)NCc1ccc[nH]1)C(=O)NCc1ccc(C(=N)N)cc1
4. N=C(N)c1ccc(CNC(=O)[C@@H]2CCN2C(=O)[C@H](N)CCCc2ccccc2)cc1
5. Cc1ccccc1CC[C@@H](N)C(=O)N[C@@H](C)C(=O)NCc1ccc(C(=N)N)cc1
6. C[C@H](NC(=O)[C@H](N)CCc1ccc(F)c(F)c1)C(=O)NCc1ccc(C(=N)N)cc1
7. C[C@H](NC(=O)[C@H](N)CCc1cc(Cl)cc(Cl)c1)C(=O)NCc1ccc(C(=N)N)cc1
8. C[C@H](NC(=O)[C@H](N)CCc1cc(F)cc(F)c1)C(=O)NCc1ccc(C(=N)N)cc1

Found:
["−− (less than 1.0-fold)", "** (5.0 to 25-fold)", "* (1.0 to 5.0-fold)", "−− (less than 1.0-fold)", "** (5.0 to 25-fold)", "** (5.0 to 25-fold)", "** (5.0 to 25-fold)", "** (5.0 to 25-fold)"]

Return reported MASP-2 vs. thrombin selectivity values for all items listed beneath this line.
1. N=C(N)c1ccc(CNC(=O)[C@@H]2CCN2C(=O)[C@H](N)C2Cc3ccccc3C2)cc1
2. N=C(N)c1ccc(CNC(=O)[C@@H]2CCN2C(=O)[C@H](NCC(=O)O)C2Cc3ccccc3C2)cc1
3. C[C@H](NC(=O)[C@H](N)CCc1ccccc1Cl)C(=O)NCc1ccc(C(=N)N)cc1

Found:
1: −− (less than 1.0-fold); 2: −− (less than 1.0-fold); 3: * (1.0 to 5.0-fold)
